Molecular target: T1, recombinant, soluble human ASGR-1 (human, UniProt P07306 62-291)
T1 construct: biotinylated in the binning assay; also called soluble huASGR-1; Soluble ASGR-1 (Amgen)
T1 sequence: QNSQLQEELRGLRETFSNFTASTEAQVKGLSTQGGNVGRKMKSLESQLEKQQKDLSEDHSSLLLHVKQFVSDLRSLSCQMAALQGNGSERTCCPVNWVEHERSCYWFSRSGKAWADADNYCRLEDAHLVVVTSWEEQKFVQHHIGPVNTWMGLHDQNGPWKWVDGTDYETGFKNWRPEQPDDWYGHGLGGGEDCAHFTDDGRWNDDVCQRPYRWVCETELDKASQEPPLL
Test: Octet BLI dissociation, pH 5.6 minus calcium
assay_endpoint: % Change Compared to pH 7.4 + Calcium (%)

147E9 (antibody, V domains shown, hybridoma mAb) VH: EVQLVESGGGLVQPGGSLRLSCAASGFTFSSYSMNWVRQAPGKGLEWVSSISGRNTTIYYADSVKGRFTISRDNAKNSLYLQMNSLRDEDTAVYYCSRDRGSCWGQGTLVTVSS VL: DIQMTQSPSSLSASVGDRVTITCRASQDINNYLAWFQQKPGKAPKSLIVAASSLQSGVPSKFSGSGSGTDFTLTISSLQPEDFATYYCQQYNSYPLTFGGGTKVEIK :: 20
74C8 (antibody, V domains shown, hybridoma mAb) VH: QVQLVESGGGVVQPGRSLRLSCAASGFTFSSYGMHWVRQAPGKGLEWVAVIWYDGSNKNYADSVKGRFTISRDNSKNTLYLQMNSLRAEDTAVYYCARDGSYGYDGLDYWGQGTLVTVSS VL: DIQMTQSPSSLSASVGDRVTITCRASQGIGKYLAWFQQKPGKAPKSLIYTTSNLQSGAPSKFSGSGSGTDFTLTISSLQYEDFATYYCQQYSNYPLTFGGGTKVEIN :: -3
52D10 (antibody, V domains shown, hybridoma mAb) VH: QVQLVESGGGVVQPGRSLRLSCAASGFTFSSYGMHWVRQAPGKGLEWVALIWYDGSNKYHADSVKGRFTISRDNSKNTLYLQMNSLRAEDTAVYYCARRYSSSWSGGMDVWGQGTTVTVSS VL: DVMMTQIPLSLSVTPGQPASISCKSSQSLLHSEGKTYLYWYLQKPGQPPQLLIFEVSNRVSGVPDRFSGRGSGTDFTLKISRVEAEDVGVYYCMQSIQYPITFGQGTRLEIK :: 45
6G7 (antibody, V domains shown, hybridoma mAb) VH: QVQLVESGGGVVQPGRSLRLSCAASGFTFSSYGMHWVRQTPGKGLEWVAIISYVGKNKYYADSVKGRFTISRDNSKNTLYLQMNSLRAEDTAVYYCARRGNSYGGYGMDVWGQGTTVTVSS VL: DIQMTQSPSSRSASVGDRVTITCQASQDISNYLNWCQQKPGKALKLLIYDASTLETGVPSRFSGSGSGTDFTFTISSVQPEDIATYYCQQYDNVPITFGQGTRLEIK :: 16
85F7 (antibody, V domains shown, hybridoma mAb) VH: QVQLQQWGAGLLKPSEPLSLTCAVYGGSFSGPYWSWIRQPPGKGLEWIGEINHSGSTNYNPSLKSRVTISVDTSKNQFSLKLTSVTAADTAVYYCARDYGGLDVWGQGTTVTVSS VL: EPVLTQSPGTLSLSPGERATLSCRASQNIYSNYLAWYQQKPGQAPRLLIYGASSRATGIPDRFSGSGSGTDFTLTISRLEPEDFAVYCCQQYESSPWTFGQGTKVEIK :: 2
